- system_tested: T1, huCD33-G69 stably expressed on Jurkat cells (human, UniProt P20138 18-364)
- T1 construct: whole, on cells; >200,000 receptors per cell; also called CD33 Mutant; CD33 R69G
- assay_text: FACS on cells;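 further: fixed Jurkat cells bearing either CD33 variant, barcoded by dye, exposed to myc-tagged scFv periplasmic extracts, detected with anti-myc PE antibody and read by flow cytometry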
property_measured: geometric mean MFI fold change over Jurkat parental

Note to self: geometric mean MFI fold change over Jurkat parental recorded for Polypeptide No. 16 (scFv, V domains shown, scFv) VH: EVQLVESGGGLVKPGGSLRLSCAASGFTFSDNSMNWVRQAPGKGLEWVSYISSSGSTIYYADSVKGRFTISRDDSKNTLYLQMNSLKTEDTAVYYCARGRASSWPNWFDPWGQGTLVTVSS VL: DIVMTQSPLSLPVTPGEPASISCRSSQSLLHSNGYNYLDWYLQKPGQSPQLLIYSASNLQSGVPDRFSGSGSGTDFTLKISRVEAEDVGVYYCMQALQTPPTFGQGTKLEIKR was < 2 fold

Note to self: geometric mean MFI fold change over Jurkat parental recorded for Polypeptide No. 39 (scFv, V domains shown, scFv) VH: EVQLLESGGGLVQPGGSLRLSCAASGFTFRNYGMGWVRQAPGKGLEWVSAISGSGGSTYYADSVKGRFTISRDNSKNTLYLQMNSLRAEDTAVYYCARVKFYGMDVWGQGTTVTVSS VL: DIQMTQSPSSLSASVGDRVTITCRASQGISNDLAWYQQKPGKAPKLLIYGASNLETGVPSRFSGSGSGTDFTLTISSLQPEDFATYYCQQANSFPFTFGPGTKVDIKR was 10 to 30 fold

Note to self: geometric mean MFI fold change over Jurkat parental recorded for Polypeptide No. 11 (scFv, V domains shown, scFv) VH: QVQLVQSGAEVKKPGASVKVSCKASGDTFTNHYMHWVRQAPGQGLEWMGWINPNSGGTNYAQKFQGRVTMTRDTSTSTVYMELSSLRSEDTAVYYCARDLVPAAVGGYFDYWGQGTLVTVSS VL: DIQMTQSPSSLSASVGDRVTITCRASQSLGSWLAWYQQKPGKAPKLLIYAASSLQSGVPSRFSGSGSGTDFTLTISSLQPEDFATYYCQQANSFPLTFGQGTKVEIKR was < 2 fold

Note to self: geometric mean MFI fold change over Jurkat parental recorded for Polypeptide No. 27 (scFv, V domains shown, scFv) VH: QVQLVQSGAEVKKPGASVKVSCKASGYTLTGYYMHWVRQAPGQGLEWMGWMNPSSGNTGYAQQFQGRVTMTRDTSTSTVYMELSSLRSEDTAVYYCARASSDRYYYDGVWYFDLWGRGTLVTVSS VL: DIQMTQSPSSLSASVGDRVTITCRASQDIRNNLGWYQQKPGKAPKLLIYGASSLQSGVPSRFSGSGSGTDFTLTISSLQPEDFATYYCQQTYSSPPTFGQGTKLEIKR was 2 to 10 fold

Note to self: geometric mean MFI fold change over Jurkat parental recorded for Polypeptide No. 19 (scFv, V domains shown, scFv) VH: EVQLLESGGGLVQPGGSLRLSCAASGFTFSSYWMHWVRQAPGKGLEWVSGFSGSARTYYADSVKGRFTISRDNSKNTLYLQMNSLRAEDTAVYYCAREWSGFDYWGQGTLVTVSS VL: DIQMTQSPSSLSASVGDRVTITCRASQNIGPWLAWYQQKPGKAPKLLIYDAKDLHPGVPSRFSGSGSGTDFTLTISSLQPEDFATYYCQQANTFPMTFGQGTRLEIKR was < 2 fold
